- Test system: Escherichia coli
- EXPERIMENT SUMMARY: Antibacterial activity against Escherichia coli K12 ATCC 23716 after 24 hrs in Mueller-Hinton broth medium
- Type: functional
- APPLIED CONDITIONS: K12, 24 h
Where a SMILES comes first, the peptide text is derived from it.
Catalogue of MBC values

Query: Could you please provide reported MBC for CC[C@H](C)[C@H](NC(=O)[C@H](CCCNC(=N)N)NC(=O)[C@H](CCCCN)NC(=O)[C@H](CO)NC(=O)[C@@H](NC(=O)[C@@H](N)CCCCN)[C@@H](C)CC)C(=O)N[C@@H](CC(C)C)C(=O)N[C@H](C(=O)NCC(=O)N[C@@H](CCCCN)C(=O)N[C@@H](CCCCN)C(=O)O)[C@@H](C)O (H-KISKRILTGKK-OH) ? Thanks!
Result: > 256 µg/mL

As a next step, examine the compound that follows.
Query: Could you please provide reported MBC for CC[C@H](C)[C@H](NC(=O)[C@H](CCCNC(=N)N)NC(=O)[C@H](CCCCN)NC(=O)[C@H](CO)NC(=O)[C@@H](NC(=O)CNC(=O)[C@H](CC(C)C)NC(=O)[C@@H](NC(=O)[C@@H](N)CCCCN)[C@@H](C)CC)C(C)C)C(=O)N[C@@H](CC(C)C)C(=O)N[C@H](C(=O)NCC(=O)N[C@@H](CCCCN)C(=O)N[C@@H](CCCCN)C(N)=O)[C@@H](C)O (H-KILGVSKRILTGKK-NH2) ? Thanks!
Result: > 256 µg/mL

Provenance of the data: ChEMBL document CHEMBL1156451
